System: Staphylococcus aureus
assay: In vivo efficacy against Staphylococcus aureus NCTC 10649M in mouse protection test after p.o. administration.
Type: functional
test_settings: Staphylococcus aureus, po; read-out: ED50
observation_type: ED50 (mg/kg)
Just the number please, in mg/kg, no unit attached.

Solved cases below.
smiles_str	unit_abbreviation	ED50
Cc1c(N2CC[C@H](NCCF)C2)c(F)cn2c(=O)c(C(=O)O)cc(C3CC3)c12	mg/kg	7.5
CCCN[C@H]1CCN(c2c(F)cn3c(=O)c(C(=O)O)cc(C4CC4)c3c2C)C1	mg/kg	25.4
Cc1c(N2CC[C@@H](C)[C@H](N)C2)c(F)cn2c(=O)c(C(=O)O)cc(C3CC3)c12	mg/kg	4.3

Qu. Tell us which ED50 value is on record for `Cc1c(N2C[C@H]3CNC[C@H]3C2)c(F)cn2c(=O)c(C(=O)O)cc(C3CC3)c12`
Ans. 12.5

----------
Below, each of the compounds is paired with its reported ED50 value.
System: Mus musculus
assay: In vivo efficacy against Staphylococcus aureus NCTC 10649M in mouse protection test
Just the number please, in mg/kg, no unit attached.

Solved cases below.
compound	ED50 [mg/kg]
Cc1c(N2CC[C@@H]3[C@H](N)[C@@H]3C2)c(F)cn2c(=O)c(C(=O)O)cc(C3CC3)c12	1.2
Cc1c(N2CC[C@@H](NCCF)C2)c(F)cn2c(=O)c(C(=O)O)cc(C3CC3)c12	2.1

Qu. Tell us which ED50 value is on record for Cc1c(N2C[C@@H](N)[C@H](C3CC3)C2)c(F)cn2c(=O)c(C(=O)O)cc(C3CC3)c12 (stereo in doubt)
Ans. 1.5

Qu. Tell us which ED50 value is on record for Cc1c(N2CCCC(NC3CC3)C2)c(F)cn2c(=O)c(C(=O)O)cc(C3CC3)c12 (centres undefined)
Ans. 0.4

----------
Test system: Staphylococcus aureus
assay: In vitro antibacterial activity against gram-positive Staphylococcus aureus 1775
Assay type: functional
test_settings: Staphylococcus aureus; read-out: MIC
observation_type: log10 of MIC (log10 of the value in µg/mL)
Values are log10 of MIC in µg/mL.

molecule	log10 of MIC
Cc1c(N2CC[C@@H]3[C@H](N)[C@@H]3C2)c(F)cn2c(=O)c(C(=O)O)cc(C3CC3)c12	0.19
Cc1c(N2C[C@H]3NCCO[C@@H]3C2)c(F)cn2c(=O)c(C(=O)O)cc(C3CC3)c12	-0.11
Cc1c(N2CC[C@H](NCCF)C2)c(F)cn2c(=O)c(C(=O)O)cc(C3CC3)c12	-0.41

Qu. Tell us which log10 of MIC value is on record for `Cc1c(N2C[C@H]3CNC[C@H]3C2)c(F)cn2c(=O)c(C(=O)O)cc(C3CC3)c12`
Ans. 0.79

Qu. Tell us which log10 of MIC value is on record for Cc1c(N2CCC(CNCCF)C2)c(F)cn2c(=O)c(C(=O)O)cc(C3CC3)c12 (stereo unspecified)
Ans. -1.00

Qu. Tell us which log10 of MIC value is on record for Cc1c(N2CCC(O)C2)c(F)cn2c(=O)c(C(=O)O)cc(C3CC3)c12 (stereo unspecified)
Ans. -0.70

Qu. Tell us which log10 of MIC value is on record for `CN[C@H]1CCN(c2c(F)cn3c(=O)c(C(=O)O)cc(C4CC4)c3c2C)C1`
Ans. 0.19

Cited source for all entries: ChEMBL document CHEMBL1132437
